system: Mus musculus; experiment: Wound healing activity in Swiss albino mouse circular excision wound model assessed as wound contraction applied topically qd after 10 days (reference value: 6.29%); type: functional
Assign Activity to each entry below.
Answers are plain numbers, in %.

Compound: CC(=O)c1c(O)c(C)c(O)c2c1OC1=CC(=O)/C(=C(/C)NCCCC(=O)O)C(=O)[C@@]12C
Activity [%]: 0.66

Compound: CC(=O)C1=C(O)C=C2Oc3c(C(C)=O)c(O)c(C)c(O)c3[C@@]2(C)C1=O [(+)-USNIC ACID]
Activity [%]: 1.85

Compound: CC(=O)c1c(O)c(C)c(O)c2c1OC1=CC(=O)/C(=C(/C)NCCS)C(=O)[C@@]12C
Activity [%]: 1.39

Compound: CC(=O)c1c(O)c(C)c(O)c2c1OC1=CC(=O)/C(=C(/C)NCCS(=O)(=O)O)C(=O)[C@@]12C
Activity [%]: 2.29

Here is the next item to consider.
"CC(=O)c1c(O)c(C)c(O)c2c1OC1=CC(=O)/C(=C(/C)NCCSSCCN/C(C)=C3\C(=O)C=C4Oc5c(C(C)=O)c(O)c(C)c(O)c5[C@@]4(C)C3=O)C(=O)[C@@]12C" has a reported Activity of 2.96

* * *

test system: Mus musculus; test: Wound healing activity in Swiss albino mouse circular excision wound model assessed as wound contraction applied topically qd after 8 days (reference value: 2.18%); format: functional
Readout Name: Activity (%)
Give bare numbers, in %.

Here's what some known entries look like.
Compound: CC(=O)c1c(O)c(C)c(O)c2c1OC1=CC(=O)/C(=C(/C)NCCSSCCN/C(C)=C3\C(=O)C=C4Oc5c(C(C)=O)c(O)c(C)c(O)c5[C@@]4(C)C3=O)C(=O)[C@@]12C
Assay System: Mus musculus
Activity / %: 6.48
//
Compound: CC(=O)c1c(O)c(C)c(O)c2c1OC1=CC(=O)/C(=C(/C)NCCS)C(=O)[C@@]12C
Assay System: Mus musculus
Activity / %: 4.42
//
Compound: CC(=O)C1=C(O)C=C2Oc3c(C(C)=O)c(O)c(C)c(O)c3[C@@]2(C)C1=O [(+)-USNIC ACID]
Assay System: Mus musculus
Activity / %: 5.62
//
Compound: CC(=O)c1c(O)c(C)c(O)c2c1OC1=CC(=O)/C(=C(/C)NCCS(=O)(=O)O)C(=O)[C@@]12C
Assay System: Mus musculus
Activity / %: 5.04

--- query ---
Activity measured on "CC(=O)c1c(O)c(C)c(O)c2c1OC1=CC(=O)/C(=C(/C)NCCCC(=O)O)C(=O)[C@@]12C" = 3.84

* * *

tested on: A-431; experiment: Cytotoxicity against human A431 cells after 24 hrs by neutral red dye uptake assay; type: functional, cell-based; conditions: A-431, 24 h
Readout Name: IC50 (µg/mL)
Answers are plain numbers, in µg/mL.

Here is how some compounds turned out for IC50.
Compound: CC(=O)c1c(O)c(C)c(O)c2c1OC1=CC(=O)/C(=C(/C)NCC(=O)O)C(=O)[C@@]12C
Unit Info: µg/mL
IC50: 4.1

Compound: CC(=O)c1c(O)c(C)c(O)c2c1OC1=CC(=O)/C(=C(/C)NCCc3c[nH]c4ccccc34)C(=O)[C@@]12C
Unit Info: µg/mL
IC50: 29

The following compounds each have a reported value; give each one's IC50.
1. CC(=O)C1=C(O)C=C2Oc3c(C(C)=O)c(O)c(C)c(O)c3[C@@]2(C)C1=O [(+)-USNIC ACID]
2. CC(=O)c1c(O)c(C)c(O)c2c1OC1=CC(=O)/C(=C(/C)N[C@@H](Cc3ccc(O)cc3)C(=O)O)C(=O)[C@@]12C

// result
1: 15; 2: 36
